Where do these numbers come from? They come from patent US11814435B2.

Form field: ka (1/Ms) huBCMA @ 37° C. (one value per entry).
Target: T1, hBCMA (human BCMA) (Homo sapiens, UniProt Q02223)
T1 sequence (Q02223 1-184): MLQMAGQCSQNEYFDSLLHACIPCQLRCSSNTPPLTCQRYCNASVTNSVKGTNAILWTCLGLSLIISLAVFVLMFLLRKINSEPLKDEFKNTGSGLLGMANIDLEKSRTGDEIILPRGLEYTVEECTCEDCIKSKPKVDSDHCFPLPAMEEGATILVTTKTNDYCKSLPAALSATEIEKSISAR
Experiment: Kinetics and affinity of hBCMA/human IgG interactions by SPR (Bio-Rad Proteon XPR36)
Assay type: binding
Conditions: huBCMA, 37° C.
Give just the numeric value; M⁻¹ s⁻¹ need not be written.

Molecule	ka (1/Ms) huBCMA @ 37° C. / M⁻¹ s⁻¹
L3.PY/L1.PH/H2.QR: anti-BCMA antibody (antibody, V domains shown) VH: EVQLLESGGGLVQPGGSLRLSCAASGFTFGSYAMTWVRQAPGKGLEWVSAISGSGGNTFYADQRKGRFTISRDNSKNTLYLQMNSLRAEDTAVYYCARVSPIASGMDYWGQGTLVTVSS VL: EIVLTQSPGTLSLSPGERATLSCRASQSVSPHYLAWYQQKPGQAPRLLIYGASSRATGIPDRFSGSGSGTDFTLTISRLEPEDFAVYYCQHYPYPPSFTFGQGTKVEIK	3.69e+06
L3.PY/L3.KY/H2.QR: anti-BCMA antibody (antibody, V domains shown) VH: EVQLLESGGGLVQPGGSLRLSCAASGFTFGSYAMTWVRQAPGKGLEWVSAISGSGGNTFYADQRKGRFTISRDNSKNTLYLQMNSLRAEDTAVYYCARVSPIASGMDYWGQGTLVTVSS VL: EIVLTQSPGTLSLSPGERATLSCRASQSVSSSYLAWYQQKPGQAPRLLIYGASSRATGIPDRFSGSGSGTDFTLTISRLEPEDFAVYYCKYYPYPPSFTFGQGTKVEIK	2.95e+06

Form: molecule = L3.PY/L1.FF/H2.HA: anti-BCMA antibody (antibody, V domains shown) VH: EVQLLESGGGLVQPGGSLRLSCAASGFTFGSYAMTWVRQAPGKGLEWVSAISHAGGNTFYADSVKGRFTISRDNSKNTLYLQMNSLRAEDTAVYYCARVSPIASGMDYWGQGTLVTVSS VL: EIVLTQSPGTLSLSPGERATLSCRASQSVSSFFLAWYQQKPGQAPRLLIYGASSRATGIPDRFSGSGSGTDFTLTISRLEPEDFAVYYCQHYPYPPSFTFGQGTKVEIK ; ka (1/Ms) huBCMA @ 37° C. = 3.49e+06

Noted for L3.PY/L1.AH/H2.HA: anti-BCMA antibody (antibody, V domains shown) VH: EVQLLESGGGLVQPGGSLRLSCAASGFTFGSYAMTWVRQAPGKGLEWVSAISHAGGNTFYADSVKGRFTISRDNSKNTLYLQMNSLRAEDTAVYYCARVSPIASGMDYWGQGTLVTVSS VL: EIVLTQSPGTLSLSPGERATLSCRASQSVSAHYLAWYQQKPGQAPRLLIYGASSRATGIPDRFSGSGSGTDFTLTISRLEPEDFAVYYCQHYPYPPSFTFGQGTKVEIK : its ka (1/Ms) huBCMA @ 37° C. reads 3.33e+06

For record L3.PY/L1.AH/H2.LT: anti-BCMA antibody (antibody, V domains shown) VH: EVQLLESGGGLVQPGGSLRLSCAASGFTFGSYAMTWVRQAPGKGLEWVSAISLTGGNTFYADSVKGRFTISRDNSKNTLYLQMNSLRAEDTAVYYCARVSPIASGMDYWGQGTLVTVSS VL: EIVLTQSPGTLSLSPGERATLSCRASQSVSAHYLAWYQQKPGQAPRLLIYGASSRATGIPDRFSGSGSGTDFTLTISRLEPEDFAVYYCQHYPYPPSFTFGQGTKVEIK the listed ka (1/Ms) huBCMA @ 37° C. is 3.16e+06
